- target of assay: NHE3 (Homo sapiens)
- Construct: expressed in transfected cells
- Sequence (P48764 26-834): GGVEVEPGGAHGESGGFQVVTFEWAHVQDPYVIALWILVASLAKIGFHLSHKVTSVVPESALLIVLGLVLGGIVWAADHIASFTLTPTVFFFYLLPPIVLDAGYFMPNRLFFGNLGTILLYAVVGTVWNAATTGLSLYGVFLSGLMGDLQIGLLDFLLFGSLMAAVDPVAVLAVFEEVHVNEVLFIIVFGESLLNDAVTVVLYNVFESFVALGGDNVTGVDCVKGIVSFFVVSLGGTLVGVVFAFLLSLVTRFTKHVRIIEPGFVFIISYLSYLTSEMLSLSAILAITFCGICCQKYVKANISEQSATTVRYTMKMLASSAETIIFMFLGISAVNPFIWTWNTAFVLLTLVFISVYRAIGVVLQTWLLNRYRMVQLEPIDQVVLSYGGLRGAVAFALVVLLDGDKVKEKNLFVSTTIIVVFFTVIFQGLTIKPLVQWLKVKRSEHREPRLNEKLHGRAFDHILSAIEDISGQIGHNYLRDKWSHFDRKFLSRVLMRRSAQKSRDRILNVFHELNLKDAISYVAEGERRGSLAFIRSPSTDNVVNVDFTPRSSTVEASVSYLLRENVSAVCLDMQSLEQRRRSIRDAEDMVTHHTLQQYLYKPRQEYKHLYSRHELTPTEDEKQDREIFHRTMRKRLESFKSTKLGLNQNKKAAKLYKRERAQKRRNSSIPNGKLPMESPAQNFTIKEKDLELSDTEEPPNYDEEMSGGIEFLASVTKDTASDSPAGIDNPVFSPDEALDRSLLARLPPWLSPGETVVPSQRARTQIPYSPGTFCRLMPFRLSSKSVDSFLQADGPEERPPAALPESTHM
- Sequence (Q99653 2-195 partner limits assumed): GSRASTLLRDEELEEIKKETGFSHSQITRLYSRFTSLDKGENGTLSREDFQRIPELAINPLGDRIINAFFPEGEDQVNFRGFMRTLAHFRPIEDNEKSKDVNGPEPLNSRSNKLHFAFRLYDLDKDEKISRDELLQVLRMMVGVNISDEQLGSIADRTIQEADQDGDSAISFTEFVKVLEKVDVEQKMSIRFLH
- method summary: Cell-based assay of NHE-3 activity (persistent inhibition), human
- run parameters: human Persistence, 60 min incubation then washout
Counter-ions that a name gives are not always drawn.
Listing of recorded IC50 by entry.

[
  {
    "molecule": "Cc1cc(S(=O)(=O)N[C@H]2CCN(CCOCCNC(=O)NCCCCNC(=O)NCCOCCN3CC[C@H](NS(=O)(=O)c4ccc(O[C@H]5c6cc(Cl)cc(C#N)c6C[C@@H]5N(C)C)c(C)c4)C3)C2)ccc1O[C@H]1c2cc(Cl)cc(C#N)c2C[C@@H]1N(C)C",
    "IC50": "< 100 nM"
  },
  {
    "molecule": "Cc1cc(S(=O)(=O)NCCOCCOCCNC(=O)NCCCCNC(=O)NCCOCCOCCNS(=O)(=O)c2cc(C)c(O[C@H]3c4cc(Cl)cc(Cl)c4C[C@@H]3N3CCC[C@@H](N)C3)c(F)c2)cc(F)c1O[C@H]1c2cc(Cl)cc(Cl)c2C[C@@H]1N1CCC[C@@H](N)C1 [Example 83, hydrochloride]",
    "IC50": "100 to 1000 nM"
  }
]

Would you kindly look at the next entry?
## Input Entry `Cc1cc(S(=O)(=O)N2CC[C@H](COc3ccnc(CNC(=O)NCCCCNC(=O)NCc4cc(OC[C@H]5CCN(S(=O)(=O)c6ccc(O[C@H]7c8cc(Cl)cc(Cl)c8C[C@@H]7N(C)C)c(C)c6)C5)ccn4)c3)C2)ccc1O[C@H]1c2cc(Cl)cc(Cl)c2C[C@@H]1N(C)C` : reported IC50 = ?
## Output 100 to 1000 nM
